Would you kindly list log10(IC50) for each of these molecules?
target_under_test: Interstitial collagenase (Homo sapiens)
Sequence (P03956 whole entry): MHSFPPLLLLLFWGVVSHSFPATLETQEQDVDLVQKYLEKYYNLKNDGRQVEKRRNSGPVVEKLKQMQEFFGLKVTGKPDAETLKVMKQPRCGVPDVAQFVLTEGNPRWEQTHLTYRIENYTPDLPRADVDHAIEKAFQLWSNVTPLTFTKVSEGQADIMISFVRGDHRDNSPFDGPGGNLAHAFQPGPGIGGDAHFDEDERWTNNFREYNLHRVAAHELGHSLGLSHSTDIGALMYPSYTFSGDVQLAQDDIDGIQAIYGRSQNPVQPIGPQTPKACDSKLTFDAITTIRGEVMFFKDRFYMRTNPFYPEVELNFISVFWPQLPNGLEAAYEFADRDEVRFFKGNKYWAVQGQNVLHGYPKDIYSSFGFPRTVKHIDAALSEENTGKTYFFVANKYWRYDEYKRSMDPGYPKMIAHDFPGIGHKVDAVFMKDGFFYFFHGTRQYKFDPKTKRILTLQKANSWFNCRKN
test: Activity against Matrix metalloprotease-1 (MMP-1).
Recorded IC50 (log10, nM)

Consider the reported log10(IC50) for these molecules:
# molecule, reported_value
records = [
    ("CNC(=O)[C@@H](NC(=O)[C@@H](CC(=O)NO)CC(C)C)c1ccccc1", 1.18),
    ("CNC(=O)[C@@H](NC(=O)[C@@H](CC(=O)NO)CC(C)C)C(C)(C)C [RO-319790]", 0.48),
    ("CNC(=O)[C@@H](NC(=O)[C@H](CCCc1ccccc1)CC(=O)NO)c1ccccc1", 1.95),
    ("CNC(=O)[C@@H](NC(=O)[C@H](CC(C)C)[C@H](C)C(=O)NO)C1CCCCC1", 0.46),
]

For "CCCCCCCCC[C@H](CC(=O)NO)C(=O)N[C@H](C(=O)NC)c1ccccc1" , what is its reported log10(IC50)? 1.95
